biological target: HpNikR Δ3aa (Helicobacter pylori G27, UniProt A1YSQ9 1-58+62-148, internal_change); assay: fluorescence anisotropy; Ni(II)-bound; FA: 5 nM DNA, 20 mM Tris pH 7.6, 100 mM NaCl, 3 mM MgSO4, temperature not stated (Ni loading 1.2 eq NiSO4 per monomer at RT). EMSA: 20 mM Tris pH 7.5, 100 mM KCl, 3 mM MgCl2, 0.1% IGEPAL, 5% glycerol, 0.1 mg/ml herring sperm DNA, RT; gel with 800 uM NiSO4 at 4 C; conditions: protein: recombinant; tags: none stated; chain copies: 4; label: fluorescein on internal thymine (T14 of strand 1); blunt
quantity.kind: pKd
Lab note: report pKd as minus log10 of the concentration in molar units, number only.

For record ureA promoter 32 bp (FA) (dsDNA) DNA 1: ATATAACACTAATTCATTTTAAATAATAATTA DNA 2: TAATTATTATTTAAAATGAATTAGTGTTATAT the listed pKd is 8.36
